# system: UniProt P43220
# Sequence (P43220 24-463): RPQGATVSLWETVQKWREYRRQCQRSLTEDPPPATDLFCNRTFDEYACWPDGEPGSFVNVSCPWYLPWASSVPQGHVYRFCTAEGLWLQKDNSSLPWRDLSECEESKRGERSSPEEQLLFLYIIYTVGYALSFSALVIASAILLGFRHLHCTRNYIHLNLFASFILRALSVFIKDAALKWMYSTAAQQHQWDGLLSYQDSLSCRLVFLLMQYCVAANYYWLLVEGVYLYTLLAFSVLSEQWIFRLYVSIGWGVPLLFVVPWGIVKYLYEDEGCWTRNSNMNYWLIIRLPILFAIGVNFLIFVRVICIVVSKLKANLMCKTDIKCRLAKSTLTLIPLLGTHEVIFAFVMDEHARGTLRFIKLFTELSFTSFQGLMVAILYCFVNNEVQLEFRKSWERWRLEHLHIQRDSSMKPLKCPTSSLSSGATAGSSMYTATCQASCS
# Sequence (P32121 whole entry partner): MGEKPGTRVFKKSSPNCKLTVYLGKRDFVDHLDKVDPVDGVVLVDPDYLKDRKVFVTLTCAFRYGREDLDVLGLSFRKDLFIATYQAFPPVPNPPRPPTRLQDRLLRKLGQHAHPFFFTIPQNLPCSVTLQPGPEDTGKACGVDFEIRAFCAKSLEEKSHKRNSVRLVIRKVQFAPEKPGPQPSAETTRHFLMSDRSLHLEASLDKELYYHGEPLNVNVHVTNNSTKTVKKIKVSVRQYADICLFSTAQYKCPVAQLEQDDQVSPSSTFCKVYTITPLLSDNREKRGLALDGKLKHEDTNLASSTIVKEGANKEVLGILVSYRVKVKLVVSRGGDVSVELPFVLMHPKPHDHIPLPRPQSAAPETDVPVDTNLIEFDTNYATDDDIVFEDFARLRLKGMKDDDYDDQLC
# Set-up: dose or concentration left out as unconfirmed
# condition: CHO-K1, […], read-out: β-arrestin recruitment Bmax (%)
measurement name: Emax (%)

Study these solved cases before continuing.
| test smiles | measurement name | endpoint result |
| --- | --- | --- |
| O=C(O)c1ccc2nc(CN3CC=C(c4csnc4OCc4ccc(Cl)cc4F)CC3)n(C[C@@H]3CCO3)c2c1 | Emax | 14.5 |
| N#Cc1ccc(COc2cccc(-c3cc(F)c(Cc4nc5ccc(C(=O)O)cc5n4C[C@@H]4CCO4)cc3F)n2)c(F)c1 | Emax | 28.5 |

P: O=C(O)c1ccc2nc(Cc3ccc(-c4ccnc(OCc5ccc(Cl)cc5F)n4)c(F)c3)n(C[C@@H]3CCO3)c2c1
Q: O=C(O)c1ccc2nc(Cc3ccc(-c4cc(OCc5ccc(Cl)cc5F)ccc4F)c(F)c3)n(C[C@@H]3CCO3)c2c1
Given the listed items, does P or Q have the lesser reported Emax? Pick one; state its label.
Q
(Q: 19.7%, P: 31.6%)
